Target: UniProt:Q99685
Sequence (Q99685 whole entry): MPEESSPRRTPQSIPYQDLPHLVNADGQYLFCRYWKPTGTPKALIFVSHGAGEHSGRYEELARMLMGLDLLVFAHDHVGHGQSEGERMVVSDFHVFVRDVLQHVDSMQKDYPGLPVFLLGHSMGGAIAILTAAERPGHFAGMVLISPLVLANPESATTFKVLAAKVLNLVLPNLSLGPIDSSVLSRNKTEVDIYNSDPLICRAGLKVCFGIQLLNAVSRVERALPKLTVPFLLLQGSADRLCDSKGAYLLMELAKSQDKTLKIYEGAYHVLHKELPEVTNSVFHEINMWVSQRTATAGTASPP
Assay: Inhibition of MAGL
Measured parameter: IC50 (nM)

O=C(N1CCN(C(c2ccccc2)c2ccccc2)CC1)n1nnc2ncccc21 = 4

====

Biological target: Monoglyceride lipase (Homo sapiens)
Assay: Irreversible inhibition of human MAGL using p-nitrophenylpropionate as substrate
pKi: −log10 of the molar value.
Measured parameter: pKi

O=C(N1CCN(C(c2ccccc2)c2ccccc2)CC1)n1nnc2ccccc21 = 7.12

====

Target: Fatty-acid amide hydrolase 1 (Homo sapiens)
Experiment: Inhibition of human recombinant FAAH assessed as [3H]-AEA hydrolysis preincubated for 30 mins […] measured after 10 mins by liquid scintillation counting
pIC50: −log10 of the molar value.
Measured parameter: pIC50

O=C(N1CCN(Cc2cccc([N+](=O)[O-])c2)CC1)n1nnc2ccccc21 = 7.37
O=C(NC1CCCCC1)c1cc(N2CCN(C(=O)n3nnc4ccccc43)CC2)ccc1[N+](=O)[O-] = 6.31
O=C(N1CCN(Cc2cccc(Cl)c2)CC1)n1nnc2ccccc21 = 8.05
O=C(N1CCN(Cc2cccc(-c3ccccc3)c2)CC1)n1nnc2ccccc21 = 8.05

====

Target: Monoglyceride lipase (Homo sapiens, UniProt Q99685)
Experiment: Inhibition of human MAGL assessed as [3H]-2-OG hydrolysis preincubated for 30 mins before [3H]-2-OG addition measured after 10 mins by liquid scintillation counting
Hi! Just check whether IC50 is below 0.03 µM. Below gives label 1, equal or above gives label 0.

O=C(N1CCN(Cc2ccc(Br)cc2)CC1)n1nnc2ccccc21 = label 1
O=C(N1CCN(c2ccccc2)CC1)n1nnc2ccccc21 = label 1
O=C(N1CCN(Cc2ccccc2-c2ccccc2)CC1)n1nnc2ccccc21 = label 0
Cc1ccccc1N1CCN(C(=O)n2nnc3ccccc32)CC1 = label 0
O=C(c1cc(N2CCN(C(=O)n3nnc4ccccc43)CC2)ccc1[N+](=O)[O-])N1CCCCC1 = label 0
O=C(N1CCN(Cc2cccc3ccccc23)CC1)n1nnc2ccccc21 = label 1
CC(C)NC(=O)c1ccc(N2CCN(C(=O)n3nnc4ccccc43)CC2)c([N+](=O)[O-])c1 = label 0
O=C(c1cccc(CN2CCN(C(=O)n3nnc4ccccc43)CC2)c1)N1CCCCC1 = label 0
O=C(NCCc1ccc(O)c(O)c1)n1nnc2ccccc21 = label 0

====

Species on record: Homo sapiens
Assay: Selectivity ratio of IC50 for human recombinant FAAH to IC50 for human MAGL
Measured parameter: Ratio IC50

O=C(c1ccc(N2CCN(C(=O)n3nnc4ccccc43)CC2)c([N+](=O)[O-])c1)N1CCOCC1 = 2
O=C(Nc1ccccc1)c1cccc(CN2CCN(C(=O)n3nnc4ccccc43)CC2)c1 = 4.8
O=C(N1CCN(Cc2cccc(-c3ccccc3)c2)CC1)n1nnc2ccccc21 = 0.4
O=C(c1cccc(CN2CCN(C(=O)n3nnc4ccccc43)CC2)c1)N1CCCCC1 = 1.6
O=C(N1CCN(Cc2ccccc2)CC1)n1nnc2ccccc21 = 2.4

====

Biological target: Fatty-acid amide hydrolase 1 (Homo sapiens, UniProt O00519)
Sequence (O00519 whole entry): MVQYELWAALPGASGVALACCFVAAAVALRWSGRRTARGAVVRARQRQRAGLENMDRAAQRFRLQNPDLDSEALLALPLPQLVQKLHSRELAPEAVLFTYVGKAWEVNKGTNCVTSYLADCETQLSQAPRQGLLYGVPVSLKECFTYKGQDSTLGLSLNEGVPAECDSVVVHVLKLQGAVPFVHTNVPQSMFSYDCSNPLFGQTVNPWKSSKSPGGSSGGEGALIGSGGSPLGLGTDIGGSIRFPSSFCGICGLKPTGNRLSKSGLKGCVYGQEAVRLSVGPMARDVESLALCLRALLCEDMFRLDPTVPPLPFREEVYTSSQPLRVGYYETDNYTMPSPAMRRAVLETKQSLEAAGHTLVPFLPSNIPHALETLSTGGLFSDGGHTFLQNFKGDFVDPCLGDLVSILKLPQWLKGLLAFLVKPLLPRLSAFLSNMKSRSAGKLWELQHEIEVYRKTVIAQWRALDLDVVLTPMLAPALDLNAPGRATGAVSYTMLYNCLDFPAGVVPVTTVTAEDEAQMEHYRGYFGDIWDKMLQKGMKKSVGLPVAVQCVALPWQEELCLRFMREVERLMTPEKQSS
Experiment: Inhibition of human recombinant FAAH assessed as [3H]-AEA hydrolysis preincubated for 30 mins […] measured after 10 mins by liquid scintillation counting
// values below are reported IC50
Measured parameter: IC50 (nM)

O=C(c1cc(N2CCN(C(=O)n3nnc4ccccc43)CC2)ccc1[N+](=O)[O-])N1CCCCC1 = 2290
O=C(N1CCN(Cc2ccc(F)cc2)CC1)n1nnc2ccccc21 = 15
O=C(N1CCN(c2ccccc2F)CC1)n1nnc2ccccc21 = 13
O=C(N1CCN(C/C=C/c2ccccc2)CC1)n1nnc2ccccc21 = 28
CN1CCN(C(=O)c2cccc(CN3CCN(C(=O)n4nnc5ccccc54)CC3)c2)CC1 = 1380
CN(C)C(=O)c1cccc(CN2CCN(C(=O)n3nnc4ccccc43)CC2)c1 = 275
O=C(NC1CCCCC1)c1cccc(CN2CCN(C(=O)n3nnc4ccccc43)CC2)c1 = 44
COc1ccc(N2CCN(C(=O)n3nnc4ccccc43)CC2)cc1 = 15
O=C(Oc1ccc([N+](=O)[O-])cc1)N1CCC(C(O)(c2ccc3c(c2)OCO3)c2ccc3c(c2)OCO3)CC1 = 36300
O=C(O)c1cccc(CN2CCN(C(=O)n3nnc4ccccc43)CC2)c1 = 27500
O=C(N1CCN(c2ccc([N+](=O)[O-])cc2)CC1)n1nnc2ccccc21 = 34
CC(C)NC(=O)c1ccc(N2CCN(C(=O)n3nnc4ccccc43)CC2)c([N+](=O)[O-])c1 = 158
O=C(N1CCN(Cc2cccc3ccccc23)CC1)n1nnc2ccccc21 = 13
Cc1ccccc1N1CCN(C(=O)n2nnc3ccccc32)CC1 = 3
CC(C)NC(=O)c1cc(N2CCN(C(=O)n3nnc4ccccc43)CC2)ccc1[N+](=O)[O-] = 2090
O=C(N1CCN(Cc2ccc(Br)cc2)CC1)n1nnc2ccccc21 = 22
O=C(N1CCN(C(c2ccccc2)c2ccccc2)CC1)n1nnc2ccccc21 = 562
O=C(Nc1ccccc1)c1cccc(CN2CCN(C(=O)n3nnc4ccccc43)CC2)c1 = 35
O=C(N1CCN(Cc2ccc(Cl)cc2)CC1)n1nnc2ccccc21 = 17
O=C(c1ccc(N2CCN(C(=O)n3nnc4ccccc43)CC2)c([N+](=O)[O-])c1)N1CCOCC1 = 1950
O=C(N1CCN(Cc2ccccc2)CC1)n1nnc2ccccc21 = 19

====

Species on record: Homo sapiens
Experiment: Selectivity ratio of IC50 for human recombinant FAAH to IC50 for human MAGL
Measured parameter: Ratio IC50

Cc1ccccc1N1CCN(C(=O)n2nnc3ccccc32)CC1 = 0.04
O=C(N1CCC(Cc2ccccc2)CC1)n1nnc2ccccc21 = 0.7
O=C(NC1CCCCC1)c1cc(N2CCN(C(=O)n3nnc4ccccc43)CC2)ccc1[N+](=O)[O-] = 12
O=C(N1CCN(Cc2ccc([N+](=O)[O-])cc2)CC1)n1nnc2ccccc21 = 7.6

====

Target: Monoglyceride lipase (Homo sapiens)
Test: Inhibition of human MAGL assessed as [3H]-2-OG hydrolysis preincubated for 30 mins before [3H]-2-OG addition measured after 10 mins by liquid scintillation counting
Measured parameter: log10 IC50 (log10 of the value in nM)

CN(C)C(=O)c1cccc(CN2CCN(C(=O)n3nnc4ccccc43)CC2)c1 = 2.01
O=C(N1CCN(c2ccccc2[N+](=O)[O-])CC1)n1nnc2ccccc21 = 2.35
O=C(Nc1ccccc1)c1cc(N2CCN(C(=O)n3nnc4ccccc43)CC2)ccc1[N+](=O)[O-] = 1.28
O=C(NC1CCCCC1)c1cc(N2CCN(C(=O)n3nnc4ccccc43)CC2)ccc1[N+](=O)[O-] = 1.61
O=C(N1CCN(Cc2ccc([N+](=O)[O-])cc2)CC1)n1nnc2ccccc21 = 1.08
O=C(c1ccc(N2CCN(C(=O)n3nnc4ccccc43)CC2)c([N+](=O)[O-])c1)N1CCOCC1 = 2.98
O=C(N1CCN(Cc2cccc([N+](=O)[O-])c2)CC1)n1nnc2ccccc21 = 0.90
O=C(NC1CCCCC1)c1cccc(CN2CCN(C(=O)n3nnc4ccccc43)CC2)c1 = 1.11
O=C(N1CCN(Cc2cccc(-c3ccccc3)c2)CC1)n1nnc2ccccc21 = 1.36

====

Species: Homo sapiens
Experiment: Selectivity ratio of IC50 for human recombinant FAAH to IC50 for human MAGL
// values below are reported Ratio IC50
Measured parameter: Ratio IC50

O=C(NC1CCCCC1)c1cccc(CN2CCN(C(=O)n3nnc4ccccc43)CC2)c1 = 3.4
O=C(N1CCN(Cc2cccc(Cl)c2)CC1)n1nnc2ccccc21 = 4.5
CN1CCN(C(=O)c2cccc(CN3CCN(C(=O)n4nnc5ccccc54)CC3)c2)CC1 = 4.3
O=C(c1cc(N2CCN(C(=O)n3nnc4ccccc43)CC2)ccc1[N+](=O)[O-])N1CCCCC1 = 60
CN(C)C(=O)c1cc(N2CCN(C(=O)n3nnc4ccccc43)CC2)ccc1[N+](=O)[O-] = 79

====

// values below are reported pIC50
Biological target: Monoglyceride lipase (Homo sapiens, UniProt Q99685)
Sequence (Q99685 whole entry): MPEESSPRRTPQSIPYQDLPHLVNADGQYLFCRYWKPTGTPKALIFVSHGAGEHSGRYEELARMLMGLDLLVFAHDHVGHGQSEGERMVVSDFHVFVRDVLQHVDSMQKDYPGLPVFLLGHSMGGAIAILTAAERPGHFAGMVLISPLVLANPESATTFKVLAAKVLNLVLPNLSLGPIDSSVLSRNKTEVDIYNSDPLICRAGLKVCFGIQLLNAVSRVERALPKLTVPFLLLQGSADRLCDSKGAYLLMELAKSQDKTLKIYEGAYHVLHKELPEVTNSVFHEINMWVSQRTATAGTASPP
Test: Inhibition of human MAGL assessed as [3H]-2-OG hydrolysis preincubated for 30 mins before [3H]-2-OG addition measured after 10 mins by liquid scintillation counting
pIC50: −log10 of the molar value.
Measured parameter: pIC50

O=C(N1CCC(Cc2ccccc2)CC1)n1nnc2ccccc21 = 8.52
O=C(N1CCN(C/C=C/c2ccccc2)CC1)n1nnc2ccccc21 = 7.48
O=C(N1CCN(Cc2ccc(Cl)cc2)CC1)n1nnc2ccccc21 = 7.96
O=C(N1CCN(Cc2cccc(Cl)c2)CC1)n1nnc2ccccc21 = 8.70
CN(C)C(=O)c1cc(N2CCN(C(=O)n3nnc4ccccc43)CC2)ccc1[N+](=O)[O-] = 7.20
O=C(N1CCN(C(c2ccccc2)c2ccccc2)CC1)n1nnc2ccccc21 = 9.27
O=C(O)c1cccc(CN2CCN(C(=O)n3nnc4ccccc43)CC2)c1 = 6.17
CC(C)NC(=O)c1cc(N2CCN(C(=O)n3nnc4ccccc43)CC2)ccc1[N+](=O)[O-] = 6.63
CN1CCN(C(=O)c2cc(N3CCN(C(=O)n4nnc5ccccc54)CC3)ccc2[N+](=O)[O-])CC1 = 6.85
O=C(c1cc(N2CCN(C(=O)n3nnc4ccccc43)CC2)ccc1[N+](=O)[O-])N1CCOCC1 = 6.79
